- Target Of Assay: MBNL1-CUG interaction (Homo sapiens, UniProt Q9NR56)
- Construct: An expression vector for MBNL1N (1-272 aminoacids) was obtained from Maurice S. Swanson; hexahis
- Sequence (Q9NR56 1-272): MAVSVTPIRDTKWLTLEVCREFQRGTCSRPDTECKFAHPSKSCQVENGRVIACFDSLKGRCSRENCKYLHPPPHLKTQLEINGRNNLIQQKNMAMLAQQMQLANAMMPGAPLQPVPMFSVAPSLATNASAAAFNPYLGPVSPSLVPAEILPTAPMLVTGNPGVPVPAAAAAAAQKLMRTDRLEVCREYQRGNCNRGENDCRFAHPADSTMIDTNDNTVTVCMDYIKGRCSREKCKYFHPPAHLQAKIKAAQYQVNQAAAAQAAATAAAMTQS
- Test Description: Electrophoretic mobility shift assay (EMSA) of inhibition of MBNL1-CUG interaction
- Condition Label: EMSA
Reported Metric: IC50 (µM)
Only the number, expressed in µM, is required.

`N=C(NCCCCNc1nc(N)nc(N)n1)c1ccc(C(=N)NCCCCNc2nc(N)nc(N)n2)cc1` has a reported IC50 of 11
